Each entry below carries its reported viability, T/C.
- System: 922993-354-T-J3-PDC complex spheroids, viability
- MEASUREMENT_DESCRIPTION: Anticancer human tumor 922993-354-T-J3-PDC patient-derived endometrial carcinoma cell line growth inhibition [GQUAD]
- CONDITION_SUMMARY: second compound 0.1 µM; first compound 0.316 µM; stronger effect = lower value
REPORTED_ENDPOINT: viability, T/C (%)

COMPOUND: CCc1c2c(nc3ccc(O)cc13)-c1cc3c(c(=O)n1C2)COC(=O)[C@]3(O)CC + Cc1cnc(CNC(=O)c2c(=O)c3ccc(N4CCCN(C)CC4)nc3n3c2sc2ccccc23)cn1
NUMERIC_READOUT: 33.4
//
COMPOUND: CCc1c2c(nc3ccc(O)cc13)-c1cc3c(c(=O)n1C2)COC(=O)[C@]3(O)CC + Cc1[nH]c2ccc(F)cc2c1-c1nc2c3cccnc3c3ncccc3c2[nH]1
NUMERIC_READOUT: 33
//
COMPOUND: O=C(c1cc(Cc2n[nH]c(=O)c3ccccc23)ccc1F)N1CCN(C(=O)C2CC2)CC1 + CN(C)c1ccc(Nc2c3ccc(NC(=O)CCN4CCCC4)cc3nc3cc(NC(=O)CCN4CCCC4)ccc23)cc1
NUMERIC_READOUT: 91.9
//
COMPOUND: Cc1[nH]c2ccccc2c1CCNCc1ccc(/C=C/C(=O)NO)cc1 + CN(C)c1ccc(Nc2c3ccc(NC(=O)CCN4CCCC4)cc3nc3cc(NC(=O)CCN4CCCC4)ccc23)cc1
NUMERIC_READOUT: 53.1
//
COMPOUND: CC(C)n1c(=O)n(C)c2cnc3cc(F)c(-c4ccc(OCCCN5CCCCC5)nc4)cc3c21 + Cc1[nH]c2ccc(F)cc2c1-c1nc2c3cccnc3c3ncccc3c2[nH]1
NUMERIC_READOUT: 103
//
COMPOUND: CC(C)(O)C1CCC(Nc2ccc3ncc(-c4cccc(C(F)(F)F)c4)n3n2)CC1 (stereo unspecified) + CN(C)c1ccc(Nc2c3ccc(NC(=O)CCN4CCCC4)cc3nc3cc(NC(=O)CCN4CCCC4)ccc23)cc1
NUMERIC_READOUT: 88.6
//
COMPOUND: Cc1[nH]c2ccccc2c1CCNCc1ccc(/C=C/C(=O)NO)cc1 + Cc1cnc(CNC(=O)c2c(=O)c3ccc(N4CCCN(C)CC4)nc3n3c2sc2ccccc23)cn1
NUMERIC_READOUT: 45.4
//
COMPOUND: CC1COCCN1c1cc(C2(O)CC3CCC(C2)O3)c2cnn(-c3ccn[nH]3)c2n1 (stereo unspecified) + CN(C)c1ccc(Nc2c3ccc(NC(=O)CCN4CCCC4)cc3nc3cc(NC(=O)CCN4CCCC4)ccc23)cc1
NUMERIC_READOUT: 68.2
//
COMPOUND: CC[C@@]1(O)C(=O)OCc2c1cc1n(c2=O)Cc2cc3c(CN(C)C)c(O)ccc3nc2-1 + CN(C)c1ccc(Nc2c3ccc(NC(=O)CCN4CCCC4)cc3nc3cc(NC(=O)CCN4CCCC4)ccc23)cc1
NUMERIC_READOUT: 43.4
//
COMPOUND: O=c1[nH]cc(F)c(=O)[nH]1 + Cc1[nH]c2ccc(F)cc2c1-c1nc2c3cccnc3c3ncccc3c2[nH]1
NUMERIC_READOUT: 102
//
COMPOUND: Nc1ccn(C2OC(CO)C(O)C2(F)F)c(=O)n1 (stereo unspecified) + Cc1cnc(CNC(=O)c2c(=O)c3ccc(N4CCCN(C)CC4)nc3n3c2sc2ccccc23)cn1
NUMERIC_READOUT: 29.4

* * *

- Test system: 922993-354-T-J3-PDC complex spheroids, viability
- MEASUREMENT_DESCRIPTION: Anticancer human tumor 922993-354-T-J3-PDC cell line growth inhibition [GQUAD];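 note: spheroids exposed to compounds for seven days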
- CONDITION_SUMMARY: curve of first compound; second compound 0.1 µM
pIC50: −log10 of the molar value.

MOLECULE: C=CCn1c(=O)c2cnc(Nc3ccc(N4CCN(C)CC4)cc3)nc2n1-c1cccc(C(C)(C)O)n1 + Cc1[nH]c2ccc(F)cc2c1-c1nc2c3cccnc3c3ncccc3c2[nH]1
SYSTEM_UNDER_TEST: 922993-354-T-J3-PDC complex spheroids, viability
CENSOR_SYMBOL: =
pIC50: 5.35
//
MOLECULE: CC1COCCN1c1cc(C2(O)CC3CCC(C2)O3)c2cnn(-c3ccn[nH]3)c2n1 (stereo not given) + CN(C)c1ccc(Nc2c3ccc(NC(=O)CCN4CCCC4)cc3nc3cc(NC(=O)CCN4CCCC4)ccc23)cc1
SYSTEM_UNDER_TEST: 922993-354-T-J3-PDC complex spheroids, viability
CENSOR_SYMBOL: =
pIC50: 6.26
//
MOLECULE: O=c1[nH]cc(F)c(=O)[nH]1 + CN(C)c1ccc(Nc2c3ccc(NC(=O)CCN4CCCC4)cc3nc3cc(NC(=O)CCN4CCCC4)ccc23)cc1
SYSTEM_UNDER_TEST: 922993-354-T-J3-PDC complex spheroids, viability
CENSOR_SYMBOL: =
pIC50: 5.34
//
MOLECULE: CC(C)n1c(=O)n(C)c2cnc3cc(F)c(-c4ccc(OCCCN5CCCCC5)nc4)cc3c21 + Cc1[nH]c2ccc(F)cc2c1-c1nc2c3cccnc3c3ncccc3c2[nH]1
SYSTEM_UNDER_TEST: 922993-354-T-J3-PDC complex spheroids, viability
CENSOR_SYMBOL: <
pIC50: 5.00
//
MOLECULE: CC1COCCN1c1cc(C2(S(C)(=N)=O)CC2)nc(-c2ccnc3[nH]ccc23)n1 (stereo not given) + CN(C)c1ccc(Nc2c3ccc(NC(=O)CCN4CCCC4)cc3nc3cc(NC(=O)CCN4CCCC4)ccc23)cc1
SYSTEM_UNDER_TEST: 922993-354-T-J3-PDC complex spheroids, viability
CENSOR_SYMBOL: <
pIC50: 5.00
//
MOLECULE: C=CCn1c(=O)c2cnc(Nc3ccc(N4CCN(C)CC4)cc3)nc2n1-c1cccc(C(C)(C)O)n1 + Cc1cnc(CNC(=O)c2c(=O)c3ccc(N4CCCN(C)CC4)nc3n3c2sc2ccccc23)cn1
SYSTEM_UNDER_TEST: 922993-354-T-J3-PDC complex spheroids, viability
CENSOR_SYMBOL: =
pIC50: 5.97
//
MOLECULE: C=CC(=O)N1CCN(c2nc(=O)n(-c3c(C)ccnc3C(C)C)c3nc(-c4c(O)cccc4F)c(F)cc23)C(C)C1 (stereo not given) + Cc1cnc(CNC(=O)c2c(=O)c3ccc(N4CCCN(C)CC4)nc3n3c2sc2ccccc23)cn1
SYSTEM_UNDER_TEST: 922993-354-T-J3-PDC complex spheroids, viability
CENSOR_SYMBOL: <
pIC50: 5.00
//
MOLECULE: O=c1[nH]cc(F)c(=O)[nH]1 + Cc1[nH]c2ccc(F)cc2c1-c1nc2c3cccnc3c3ncccc3c2[nH]1
SYSTEM_UNDER_TEST: 922993-354-T-J3-PDC complex spheroids, viability
CENSOR_SYMBOL: <
pIC50: 5.00
//
MOLECULE: O=C(NO)c1cnc(N2CCN(S(=O)(=O)c3ccc4ccccc4c3)CC2)nc1 + CN(C)c1ccc(Nc2c3ccc(NC(=O)CCN4CCCC4)cc3nc3cc(NC(=O)CCN4CCCC4)ccc23)cc1
SYSTEM_UNDER_TEST: 922993-354-T-J3-PDC complex spheroids, viability
CENSOR_SYMBOL: =
pIC50: 6.32
//
MOLECULE: Cc1[nH]c2ccccc2c1CCNCc1ccc(/C=C/C(=O)NO)cc1 + Cc1[nH]c2ccc(F)cc2c1-c1nc2c3cccnc3c3ncccc3c2[nH]1
SYSTEM_UNDER_TEST: 922993-354-T-J3-PDC complex spheroids, viability
CENSOR_SYMBOL: <
pIC50: 6.50
//
MOLECULE: Cn1ncnc1[C@H]1c2n[nH]c(=O)c3cc(F)cc(c23)N[C@@H]1c1ccc(F)cc1 + Cc1[nH]c2ccc(F)cc2c1-c1nc2c3cccnc3c3ncccc3c2[nH]1
SYSTEM_UNDER_TEST: 922993-354-T-J3-PDC complex spheroids, viability
CENSOR_SYMBOL: <
pIC50: 6.50
//
MOLECULE: CC(C)(O)C1CCC(Nc2ccc3ncc(-c4cccc(C(F)(F)F)c4)n3n2)CC1 (stereo not given) + CN(C)c1ccc(Nc2c3ccc(NC(=O)CCN4CCCC4)cc3nc3cc(NC(=O)CCN4CCCC4)ccc23)cc1
SYSTEM_UNDER_TEST: 922993-354-T-J3-PDC complex spheroids, viability
CENSOR_SYMBOL: <
pIC50: 5.00
//
MOLECULE: Cn1ncnc1[C@H]1c2n[nH]c(=O)c3cc(F)cc(c23)N[C@@H]1c1ccc(F)cc1 + CN(C)c1ccc(Nc2c3ccc(NC(=O)CCN4CCCC4)cc3nc3cc(NC(=O)CCN4CCCC4)ccc23)cc1
SYSTEM_UNDER_TEST: 922993-354-T-J3-PDC complex spheroids, viability
CENSOR_SYMBOL: <
pIC50: 6.50
//
MOLECULE: COc1ncnc(C2CC2)c1-c1ncc2cnn(Cc3ccc(-c4nc(C(F)(F)F)cn4C(C)C)cc3)c2n1 + Cc1cnc(CNC(=O)c2c(=O)c3ccc(N4CCCN(C)CC4)nc3n3c2sc2ccccc23)cn1
SYSTEM_UNDER_TEST: 922993-354-T-J3-PDC complex spheroids, viability
CENSOR_SYMBOL: <
pIC50: 5.00
//
MOLECULE: CCc1c2c(nc3ccc(O)cc13)-c1cc3c(c(=O)n1C2)COC(=O)[C@]3(O)CC + Cc1[nH]c2ccc(F)cc2c1-c1nc2c3cccnc3c3ncccc3c2[nH]1
SYSTEM_UNDER_TEST: 922993-354-T-J3-PDC complex spheroids, viability
CENSOR_SYMBOL: =
pIC50: 8.09
